The values you see were collected from paper PMC7795171.

IC50 listing for selected molecules.
molecular target: hFAAH (Homo sapiens, UniProt O00519); construct: purchased Cayman Chemical Company; assay: FAAH activity assay, purified human FAAH, [14C]AEA hydrolysis; format: biochemical; conditions: purified human FAAH, 10 µM [14C]AEA, 37 °C, 15 min, pH 9.0; dose-response 0–100 µM; read-out: IC50 Towards hFAAH
Sequence (O00519 whole entry): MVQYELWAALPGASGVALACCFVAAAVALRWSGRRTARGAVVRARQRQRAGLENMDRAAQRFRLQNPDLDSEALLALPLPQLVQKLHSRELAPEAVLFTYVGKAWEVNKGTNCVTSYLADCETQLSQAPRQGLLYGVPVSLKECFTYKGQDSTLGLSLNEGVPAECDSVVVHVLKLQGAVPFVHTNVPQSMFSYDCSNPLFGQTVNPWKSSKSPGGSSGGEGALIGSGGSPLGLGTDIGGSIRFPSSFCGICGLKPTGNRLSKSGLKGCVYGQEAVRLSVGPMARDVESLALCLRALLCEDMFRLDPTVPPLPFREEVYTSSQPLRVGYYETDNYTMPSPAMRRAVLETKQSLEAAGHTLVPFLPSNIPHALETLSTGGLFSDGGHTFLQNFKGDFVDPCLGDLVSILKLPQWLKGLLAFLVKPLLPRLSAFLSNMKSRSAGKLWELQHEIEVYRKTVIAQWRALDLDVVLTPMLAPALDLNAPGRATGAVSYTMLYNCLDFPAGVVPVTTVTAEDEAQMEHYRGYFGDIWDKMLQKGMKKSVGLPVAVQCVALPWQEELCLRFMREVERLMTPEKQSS

molecule: C=C1CC/C=C(\C)CC[C@@H]2[C@@H]1CC2(C)C
IC50: > 100 µM
//
molecule: CCCCCc1cc(O)c2c(c1)OC(C)(CCC=C(C)C)C=C2 (stereo not shown)
IC50: > 100 µM
//
molecule: CCCCCc1cc(O)c(C/C=C(\C)CCC=C(C)C)c(O)c1
IC50: > 100 µM
//
molecule: C=C(C)[C@@H]1CCC(C)=C[C@H]1c1c(O)cc(CCCCC)cc1O [CBD, cannabidiol, reference compound]
IC50: > 100 µM

* * *

molecular target: rFAAH (Rattus norvegicus); construct: from tissue; host or cells: rat brain membranes; assay: FAAH activity assay, rat brain membranes, [14C]AEA hydrolysis; format: biochemical; details: rFAAH, compound at 100 µm
Sequence (P97612 whole entry): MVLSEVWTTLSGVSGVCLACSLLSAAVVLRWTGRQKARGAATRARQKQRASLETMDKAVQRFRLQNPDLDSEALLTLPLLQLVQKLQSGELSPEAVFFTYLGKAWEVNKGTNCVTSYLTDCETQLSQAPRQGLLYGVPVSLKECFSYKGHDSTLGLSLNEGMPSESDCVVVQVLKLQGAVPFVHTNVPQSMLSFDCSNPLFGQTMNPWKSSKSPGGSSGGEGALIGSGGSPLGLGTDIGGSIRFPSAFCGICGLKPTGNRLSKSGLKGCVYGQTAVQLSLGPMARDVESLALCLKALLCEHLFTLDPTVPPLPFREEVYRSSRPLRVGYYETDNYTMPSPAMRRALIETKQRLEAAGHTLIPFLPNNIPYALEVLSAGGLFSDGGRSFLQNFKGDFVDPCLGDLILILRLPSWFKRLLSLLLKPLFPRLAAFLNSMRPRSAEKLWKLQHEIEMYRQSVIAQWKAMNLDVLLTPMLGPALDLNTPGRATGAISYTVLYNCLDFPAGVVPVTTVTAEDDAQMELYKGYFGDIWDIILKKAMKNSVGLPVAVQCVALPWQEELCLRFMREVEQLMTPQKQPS

compound: CCCc1cc(O)c2c(c1)OC(C)(C)[C@@H]1CCC(C)=C[C@@H]21 [THCV, Δ^9-tetrahydrocannabivarin]
assayed-system: rFAAH (Rattus norvegicus)
% In Vitro Inhibition (At 100 µm) (%): 30
--
compound: CCCCCc1cc(O)c2c(c1)OC(C)(CCC=C(C)C)C=C2 (centres unmarked) [CBC, cannabichromene]
assayed-system: rFAAH (Rattus norvegicus)
% In Vitro Inhibition (At 100 µm) (%): 51
--
compound: C=C1CC/C=C(\C)CC[C@@H]2[C@@H]1CC2(C)C [BCP, β-caryophyllene]
assayed-system: rFAAH (Rattus norvegicus)
% In Vitro Inhibition (At 100 µm) (%): 18
--
compound: CCCCCc1cc(O)c2c(c1)OC(C)(C)c1ccc(C)cc1-2 [CBN, cannabinol]
assayed-system: rFAAH (Rattus norvegicus)
% In Vitro Inhibition (At 100 µm) (%): 65
--
compound: CCCCCc1cc(O)c(C/C=C(\C)CCC=C(C)C)c(O)c1 [CBG, cannabigerol]
assayed-system: rFAAH (Rattus norvegicus)
% In Vitro Inhibition (At 100 µm) (%): 53

* * *

biological target: rFAAH (Rattus norvegicus); construct: from tissue; host or cells: rat brain membranes; experiment: FAAH activity assay, rat brain membranes, [14C]AEA hydrolysis; format: biochemical; details: rat brain membranes, 10 µM [14C]AEA, 37 °C, 15 min, pH 9.0; dose-response 0–100 µM; read-out: IC50 Towards rFAAH
pIC50: −log10 of the molar value.
pIC50 listing for selected compounds.

compound: CCCCCc1cc(O)c(C/C=C(\C)CCC=C(C)C)c(O)c1 [CBG, cannabigerol]
assayed-system: rFAAH (Rattus norvegicus)
pIC50: ~4.00

compound: C=C1CC/C=C(\C)CC[C@@H]2[C@@H]1CC2(C)C [BCP, β-caryophyllene]
assayed-system: rFAAH (Rattus norvegicus)
pIC50: < 4.00

compound: CCCCCc1cc(O)c2c(c1)OC(C)(CCC=C(C)C)C=C2 (stereo not drawn) [CBC, cannabichromene]
assayed-system: rFAAH (Rattus norvegicus)
pIC50: ~4.00
